assay: Oral bioavailability in male BALB/c mice administered with 35 mg/kg, po; assay type: ADME, organism-based; conditions: mouse, in vivo

# smi, readoutUnits, bioavailability
records = [
    ("CCCc1c(OCCCOc2ccc3c(ccn3CC(=O)[O-])c2)ccc2c(C(F)(F)F)noc12.[Na+]", "%", 100),
]

----------
target: Peroxisome proliferator-activated receptor alpha (Homo sapiens); test: Functional activity at human PPAR alpha in Huh7 cells by transactivation assay
Sequence (Q07869 whole entry): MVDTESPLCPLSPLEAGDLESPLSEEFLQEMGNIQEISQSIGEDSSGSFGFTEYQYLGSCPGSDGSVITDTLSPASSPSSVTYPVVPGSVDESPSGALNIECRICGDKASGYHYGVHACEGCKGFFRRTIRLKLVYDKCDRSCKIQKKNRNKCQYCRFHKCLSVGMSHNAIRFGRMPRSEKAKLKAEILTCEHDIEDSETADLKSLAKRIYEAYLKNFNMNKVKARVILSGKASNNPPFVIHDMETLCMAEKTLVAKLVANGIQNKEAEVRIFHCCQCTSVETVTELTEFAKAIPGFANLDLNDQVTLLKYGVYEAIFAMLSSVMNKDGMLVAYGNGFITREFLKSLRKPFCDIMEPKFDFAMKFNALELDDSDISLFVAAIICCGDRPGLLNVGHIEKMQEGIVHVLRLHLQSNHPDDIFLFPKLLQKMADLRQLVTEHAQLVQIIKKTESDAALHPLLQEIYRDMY
Listing of entries alongside the reported EC50.

# smi, readoutUnits, readingQualifier, EC50
data = [
    ("CCCc1c(OCCOc2ccc3c(ccn3CC(=O)O)c2)ccc2c(C(F)(F)F)noc12", "nM", "=", 311),
    ("CCCc1c(OCCCCOc2ccc3c(ccn3CC(=O)O)c2)ccc2c(C(F)(F)F)noc12", "nM", "=", 1040),
    ("CCCc1c(OCCCOc2cccc3c2ccn3CC(=O)O)ccc2cc(-c3ccccc3)oc12", "nM", ">", 10000),
    ("CCCc1c(OCCCOc2cccc3c2ccn3CC(=O)O)ccc2cc[nH]c12", "nM", "=", 1210),
    ("CCCc1c(OCCCOc2cccc3c2ccn3CC(=O)O)ccc2c(C(F)(F)F)noc12", "nM", "=", 186),
]

----------
test: Clearance in male BALB/c mice administered with 9.7 mg/kg, iv; format: ADME, organism-based; design: dose 9.7 mg/kg, route intravenous; conditions: mouse, in vivo
assayReadout: clearance (mL/min/kg)

# smi, readoutUnits, observedValue
rows = [
    ("CCCc1c(OCCCOc2ccc3c(ccn3CC(=O)[O-])c2)ccc2c(C(F)(F)F)noc12.[Na+]", "mL/min/kg", 0.9),
]

----------
Target: Peroxisome proliferator-activated receptor delta (Homo sapiens)
Sequence (Q03181 whole entry): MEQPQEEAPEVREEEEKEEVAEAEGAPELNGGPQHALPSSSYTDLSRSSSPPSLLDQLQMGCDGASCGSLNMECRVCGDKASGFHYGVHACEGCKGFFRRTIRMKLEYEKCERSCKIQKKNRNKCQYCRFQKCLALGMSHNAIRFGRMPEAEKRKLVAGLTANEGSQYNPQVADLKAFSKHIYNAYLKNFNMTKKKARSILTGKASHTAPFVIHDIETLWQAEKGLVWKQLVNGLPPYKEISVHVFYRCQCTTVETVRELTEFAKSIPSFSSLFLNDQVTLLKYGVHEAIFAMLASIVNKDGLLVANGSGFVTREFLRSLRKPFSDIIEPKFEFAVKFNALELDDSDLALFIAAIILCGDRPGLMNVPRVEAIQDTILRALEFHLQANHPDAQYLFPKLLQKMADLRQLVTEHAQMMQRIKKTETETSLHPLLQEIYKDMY
assayReadout: log10 of EC50 (log10 of the value in nM)

# smi, observedValue
rows = [
    ("CCCc1c(OCCCOc2cccc3c2ccn3CC(=O)O)ccc2cc(-c3ccccc3)[nH]c12", 3.52),
    ("CCCc1c(OCCCOc2cccc3c2ccn3CC(=O)O)ccc2c(C(F)(F)F)noc12", 2.79),
    ("CCCc1c(OCCCOc2cccc3c2ccn3CC(=O)O)ccc2cc(-c3ccccc3)oc12", 3.89),
    ("CCCc1c(OCCCOc2ccc3c(ccn3CC(=O)O)c2)ccc2c(C(=O)C(F)(F)F)c[nH]c12", 3.96),
    ("CCCc1c(OCCCOc2ccc3c(ccn3CC(=O)O)c2)ccc2c(C#N)c[nH]c12", 3.42),
    ("CCCc1c(OCCCOc2cccc3c2ccn3CC(=O)O)ccc2cc[nH]c12", 2.62),
    ("CCCc1c(OCCOc2ccc3c(ccn3CC(=O)O)c2)ccc2c(C(F)(F)F)noc12", 2.10),
    ("CCCc1c(OCCCOc2ccc3c(ccn3CC(=O)O)c2)ccc2c(-c3ccccc3)noc12", 1.90),
    ("CCCc1c(OCCCOc2ccc3ccn(CC(=O)O)c3c2)ccc2c(C(F)(F)F)noc12", 1.90),
]

Value source: ChEMBL document CHEMBL1140430
